Target: His6x-LC3B (residues 1-120) (UniProt Q9GZQ8 1-120)
Assay: ITC
MEASURED ATTRIBUTE: Kd (µM)
Give bare numbers, in µM.

Reported Kd ( SGGGWDELDS [tepsin LIR motif peptide (residues 185-193)] ) = 44.4
